Reported normalized growth values for the following compounds.
protocol-details: chemical genetic growth profiling, strain panel (AID 1159580);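 also: tested at 20 µM; growth read once vehicle control cultures reached saturation at 30 °C; 1 = growth at the plate median or of vehicle wells; lower values mean less growth of the strain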
cond: S. cerevisiae deletion strains, growth OD, locus YJL187C, strain SWE1 (second series), stronger effect = lower value
Out of some 5,500 compounds screened, about 2,000 (36%) were called active. Roughly 18% stayed inconclusive and do not appear here. The list shows a part of the results.
Response field accepts a number only; no unit should be typed.

Field: example entries. Status: answers known.
INSERT INTO results (compound, recorded_measurement) VALUES
  ('O=C(O)c1cc(O)ccc1O', 1.01),
  ('COc1ccccc1N1CCN(CCCNc2cc(=O)n(C)c(=O)n2C)CC1', 0.978),
  ('CC1=CC(=O)C2C(C)(C)CCC[C@]2(C)[C@@]1(O)CCc1ccoc1 (stereo not given in full)', 1),
  ('CO[C@@H]1C[C@H](O[C@H]2CC[C@]3(C)C4CC[C@]5(C)[C@@H](C6=CC(=O)OC6)CC[C@]5(O)[C@@H]4CC[C@]3(O)C2)O[C@H](C)[C@@H]1O (stereo not given in full)', 1.04),
  ('COc1cc(O)c2c(=O)cc(-c3ccc(O)cc3)oc2c1', 1.02),
  ('CC1(C)S[C@@H]2C(N3C(=O)[C@@H](c4ccccc4)NC3(C)C)C(=O)N2[C@H]1C(=O)O (stereo not given in full)', 1),
  ('C/C=C/CC(C)C(O)C1C(=O)NC(CC)C(=O)N(C)CC(=O)N(C)C(CC(C)C)C(=O)NC(C(C)C)C(=O)N(C)C(CC(C)C)C(=O)NC(C)C(=O)NC(C)C(=O)N(C)C(CC(C)C)C(=O)N(C)C(CC(C)C)C(=O)N(C)C(C(C)C)C(=O)N1C (stereo not given)', 0.968),
  ('COc1ccc(-c2cc(=O)c3c(O)c(OC)c(OC)cc3o2)cc1O', 0.952);

Requested field: normalized growth. Item: COc1ccc(-c2cc(=O)c3c(O)c(OC)c(O[C@H]4O[C@H](CO[C@@H]5O[C@@H](C)[C@H](O)[C@@H](O)[C@H]5O)[C@@H](O)[C@H](O)[C@H]4O)cc3o2)cc1
1.01

Same read-out for CCOC(=O)CC(SP(=S)(OC)OC)C(=O)OCC (stereo not given) ?
1.01

---

protocol-details: chemical genetic growth profiling, strain panel (AID 1159580)
cond: S. cerevisiae deletion strains, growth OD, locus YBR021W, strain FUR4, stronger effect = lower value
The whole screen tested about 5,500 compounds, of which about 2,000 (36%) were called active. Another 18% or so got no clear call; they are omitted. The list shows a part of the results.
Labelling: normalized growth reported below 1 becomes class 1; at or above becomes class 0.

# count of solved cases: 2
INSERT INTO assay_data (compound, label_value) VALUES
  ('CO[C@@H]1C[C@H](O[C@H]2CC[C@]3(C)C4CC[C@]5(C)[C@@H](C6=CC(=O)OC6)CC[C@]5(O)[C@@H]4CC[C@]3(O)C2)O[C@H](C)[C@@H]1O (stereo not given in full)', 'class 1'),
  ('C/C=C(\C)C(=O)O[C@@H]1c2c(ccc3ccc(=O)oc23)OC(C)(C)[C@@H]1OC(C)=O', 'class 0');

Now consider a different compound.
Bench note: check whether CC1(C)C(O)CC(=O)C2(C)C1CC(O)C1(C)C2CCC2(C)C(c3ccoc3)OC(=O)C3OC321 (stereo not given) shows normalized growth below 1
class 1

---

protocol-details: chemical genetic growth profiling, strain panel (AID 1159580)
cond: S. cerevisiae deletion strains, growth OD, locus YDR137W, strain rgp1, stronger effect = lower value
The whole screen tested about 5,500 compounds, of which about 2,000 (36%) were called active. Another 18% or so got no clear call; they are omitted. The list shows a part of the results.
Reported normalized growth values for the following compounds.
Response field accepts a number only; no unit should be typed.

Field: example entries. Status: answers known.
INSERT INTO assay_data (compound, recorded_measurement) VALUES
  ('CCn1nc(C(=O)O)c(=O)c2cc3c(cc21)OCO3', 0.949),
  ('COc1c(O)cc2c(c1O)[C@H]1O[C@H](CO)[C@@H](O)[C@H](O)[C@@H]1OC2=O', 1.05),
  ('CC1(C)S[C@@H]2C(N3C(=O)[C@@H](c4ccccc4)NC3(C)C)C(=O)N2[C@H]1C(=O)O (stereo partly specified)', 1.11),
  ('NCCCC(O)(P(=O)(O)O)P(=O)(O)O', 1);

Requested field: normalized growth. Item: CC1(C)S[C@@H]2[C@H](NC(=O)C(C(=O)O)c3ccccc3)C(=O)N2[C@H]1C(=O)O (stereo partly specified)
0.944

Same read-out for C[C@@H]1CCC2[C@](C)(CO)[C@@H](O)CC[C@]2(C)[C@@]12CC[C@@](CO)(CCO)O2 (stereo partly specified) ?
1.01

---

Reported normalized growth values for the following molecules.
protocol-details: chemical genetic growth profiling, strain panel (AID 1159580);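 also: tested at 20 µM; growth read once vehicle control cultures reached saturation at 30 °C; 1 = growth at the plate median or of vehicle wells; lower values mean less growth of the strain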
cond: S. cerevisiae deletion strains, growth OD, locus YOR001W, strain rrp6, stronger effect = lower value
In all, about 5,500 compounds went through this assay and about 2,000 (36%) were called active. Inconclusive results (about 18%) are left out. Some of the results follow.
Response field accepts a number only; no unit should be typed.

Field: example entries. Status: answers known.
INSERT INTO measurements (molecule, reported_metric, recorded_measurement) VALUES
  ('O=C(CCCN1CCC2(CC1)C(=O)NCN2c1ccccc1)c1ccc(F)cc1', 'normalized growth', 0.984),
  ('CCCCCC(O)C1C(=O)OC(C)C(O)/C=C/C=C/C=C/C=C/C=C(\C)C(O)CC(O)CC(O)CC(O)CC(O)CC(O)CC1O (stereo not drawn)', 'normalized growth', 1);

As a next step, examine the molecule that follows.
Requested field: normalized growth. Item: CN(C)C(=O)C(CCN1CCC(O)(c2ccc(Cl)cc2)CC1)(c1ccccc1)c1ccccc1
0.982

---

protocol-details: chemical genetic growth profiling, strain panel (AID 1159580);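 also: tested at 20 µM; growth read once vehicle control cultures reached saturation at 30 °C; 1 = growth at the plate median or of vehicle wells; lower values mean less growth of the strain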
cond: S. cerevisiae deletion strains, growth OD, locus YBR279W, strain paf1, stronger effect = lower value
Screen size: about 5,500 compounds; about 2,000 (36%) were called active. Not shown: some 18% with an inconclusive outcome. This is one part of the list.
Reported normalized growth values for the following compounds.
Response field accepts a number only; no unit should be typed.

INSERT INTO measurements (compound, recorded_measurement) VALUES
  ('COC1CC(OC2CCC3(C)C(CCC4C3CCC3(C)C(C5=CC(=O)OC5)C(OC(C)=O)CC43O)C2)OC(C)C1O (stereo unspecified)', 1.01),
  ('C[C@]12CCC3C(CC[C@]4(O)C[C@@H](O)CC[C@]34C=O)[C@@]1(O)CCC2C1=CC(=O)OC1 (stereo partly specified)', 0.986),
  ('C[C@@H]1O[C@@H](O[C@H]2CC[C@]3(C=O)C4CC[C@]5(C)[C@@H](C6=CC(=O)OC6)CC[C@]5(O)C4CC[C@]3(O)C2)[C@H](O)[C@H](O)[C@H]1O (stereo partly specified)', 1),
  ('COc1cccc2c1CCC1=CC(=O)CC[C@@]12C', 1),
  ('C[C@H]1O[C@@H](O[C@H]2[C@@H](O)C[C@H](O[C@H]3[C@@H](O)C[C@H](O[C@H]4CC[C@]5(C)C6CC[C@]7(C)[C@@H](C8=CC(=O)OC8)CC[C@]7(O)C6CC[C@@H]5C4)O[C@@H]3C)O[C@@H]2C)C[C@H](O)[C@@H]1O (stereo partly specified)', 0.967);

As a next step, examine the compound that follows.
Requested field: normalized growth. Item: C[C@H]1O[C@@H](O[C@H]2[C@@H](O)C[C@H](O[C@H]3[C@@H](O)C[C@H](O[C@H]4CC[C@]5(C)C6C[C@@H](O)[C@]7(C)[C@@H](C8=CC(=O)OC8)CC[C@]7(O)C6CC[C@@H]5C4)O[C@@H]3C)O[C@@H]2C)C[C@H](O)[C@@H]1O (stereo partly specified)
0.996

---

protocol-details: chemical genetic growth profiling, strain panel (AID 1159580);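 also: tested at 20 µM; growth read once vehicle control cultures reached saturation at 30 °C; 1 = growth at the plate median or of vehicle wells; lower values mean less growth of the strain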
cond: S. cerevisiae deletion strains, growth OD, locus YOR069W, strain VPS5, stronger effect = lower value
The campaign covered roughly 5,500 compounds. About 2,000 (36%) were called active. Roughly 18% stayed inconclusive and do not appear here. The list shows a part of the results.
reported-metric: normalized growth
Response field accepts a number only; no unit should be typed.

Field: example entries. Status: answers known.
INSERT INTO results (compound, reported_metric, recorded_measurement) VALUES
  ('CCC(=O)OCC(=O)C1(OC(=O)CC)C(C)CC2C3CCC4=CC(=O)C=CC4(C)C3(Cl)C(O)CC21C (centres undefined)', 'normalized growth', 1.01),
  ('CCC(=O)O[C@]1(C(=O)CCl)[C@@H](C)CC2C3CCC4=CC(=O)C=C[C@]4(C)[C@@]3(F)[C@@H](O)C[C@@]21C (some centres undefined)', 'normalized growth', 0.978),
  ('NS(=O)(=O)c1cc2c(cc1C(F)(F)F)NC(Cc1ccccc1)NS2(=O)=O (centres undefined)', 'normalized growth', 1.01);

Requested field: normalized growth. Item: C/C=C(\C)C(=O)O[C@@H]1c2c(ccc3ccc(=O)oc23)OC(C)(C)[C@@H]1OC(C)=O
0.995
